# target-or-system: p300 (Homo sapiens)
# Construct: host or cells: A549 P300 HiBit cells
# procedure-summary: P300 degradation, HiBit technology in A549 P300 HiBit cells (2 h)
# Format: cell-based
# setup-conditions: A549 P300 HiBit cells, 2 hrs post treatment
In this section we review reported DC50 values for a set of compounds.
outcome-measure: DC50

# compound, result
data = [
    ("Cn1c(=O)n(C)c2cc(N3CCCc4nc(-c5ccc(C(=O)NCC#Cc6cc7c(C8CCC(=O)NC8=O)cccc7o6)nc5)ncc43)ccc21 (stereo not drawn)", "< 1 nM"),
    ("Cc1cc(-c2ncc3c(n2)OCCN3c2ccc3c(c2)n(C)c(=O)n3C)cnc1C(=O)NCC#Cc1cc2c(C3CCC(=O)NC3=O)nccc2o1 (stereo not drawn)", "1 to 9.9 nM"),
    ("Cc1cc(-c2cc3cccc(-c4ccc5c(c4)n(C)c(=O)n5C)c3cn2)cnc1C(=O)NCC#Cc1cc2c([C@H]3CCC(=O)NC3=O)cccc2o1", "1 to 9.9 nM"),
    ("CC(C)c1cc(-c2cccc3cc(-c4ccc(C(=O)NCC#Cc5cnc6ccn(C7CCC(=O)NC7=O)c6c5)nc4)ncc23)cc2c1n(C)c(=O)n2C (stereo not drawn)", "1 to 9.9 nM"),
    ("CC(C)c1cc(-c2cccc3cc(-c4ccc(C(=O)NCC#Cc5cc6c(C7CCC(=O)NC7=O)coc6cc5C#N)nc4)ncc23)cc2c1n(C)c(=O)n2C (stereo not drawn)", "10 to 99 nM"),
    ("CC(C)c1cc(-c2cccc3cc(-c4ccc(C(=O)NCC#Cc5cnc6c(c5)c(C5CCC(=O)NC5=O)cn6C)nc4)ncc23)cc2c1n(C)c(=O)n2C (stereo not drawn)", "10 to 99 nM"),
    ("Cc1cc(-c2ncc3c(n2)OCCN3c2ccc3c(c2)n(C)c(=O)n3C)cnc1C(=O)NCC#Cc1cc2c(C3CCC(=O)NC3=O)ccc(F)c2o1 (stereo not drawn)", "10 to 99 nM"),
    ("CCc1cc(N(C)c2ccc(-c3cnc(C(=O)NCC#Cc4cccc(NC5CCC(=O)NC5=O)c4)c(C)c3)c(C)c2)c2cc(C)c(=O)n(C)c2c1 (stereo not drawn)", "10 to 99 nM"),
    ("CCN(c1cnc(-c2cnc(C(=O)NCC#Cc3ccc4occ(C5CCC(=O)NC5=O)c4c3)c(C)c2)nc1)c1cc(C(C)C)c2c(c1)n(C)c(=O)n2C (stereo not drawn)", "1 to 9.9 nM"),
    ("Cc1cc(-c2ccc(N(C)c3cc(C(C)C)c4c(c3)n(C)c(=O)n4C)cc2)cnc1C(=O)NCC#Cc1cccc(NC2CCC(=O)NC2=O)c1 (stereo not drawn)", "100 to 999 nM"),
    ("Cc1cc2c(-c3cccc4cc(-c5ccc(C(=O)NCC#Cc6ccc7occ(C8CCC(=O)NC8=O)c7c6)nc5)ncc34)nc(C(C)C)cc2n(C)c1=O (stereo not drawn)", "1 to 9.9 nM"),
    ("Cn1c(=O)n(C)c2c(C3CCOCC3)nc(N3CCCc4nc(-c5ccc(C(=O)NCC#Cc6ccc7occ(C8CCC(=O)NC8=O)c7c6)nc5)ncc43)cc21 (stereo not drawn)", "> 1000 nM"),
]

* * *

In this section we review reported Dmax values for a set of compounds.
# target-or-system: p300 (Homo sapiens, UniProt Q09472)
# Construct: host or cells: A549 P300 HiBit cells
# Sequence (Q09472 whole entry): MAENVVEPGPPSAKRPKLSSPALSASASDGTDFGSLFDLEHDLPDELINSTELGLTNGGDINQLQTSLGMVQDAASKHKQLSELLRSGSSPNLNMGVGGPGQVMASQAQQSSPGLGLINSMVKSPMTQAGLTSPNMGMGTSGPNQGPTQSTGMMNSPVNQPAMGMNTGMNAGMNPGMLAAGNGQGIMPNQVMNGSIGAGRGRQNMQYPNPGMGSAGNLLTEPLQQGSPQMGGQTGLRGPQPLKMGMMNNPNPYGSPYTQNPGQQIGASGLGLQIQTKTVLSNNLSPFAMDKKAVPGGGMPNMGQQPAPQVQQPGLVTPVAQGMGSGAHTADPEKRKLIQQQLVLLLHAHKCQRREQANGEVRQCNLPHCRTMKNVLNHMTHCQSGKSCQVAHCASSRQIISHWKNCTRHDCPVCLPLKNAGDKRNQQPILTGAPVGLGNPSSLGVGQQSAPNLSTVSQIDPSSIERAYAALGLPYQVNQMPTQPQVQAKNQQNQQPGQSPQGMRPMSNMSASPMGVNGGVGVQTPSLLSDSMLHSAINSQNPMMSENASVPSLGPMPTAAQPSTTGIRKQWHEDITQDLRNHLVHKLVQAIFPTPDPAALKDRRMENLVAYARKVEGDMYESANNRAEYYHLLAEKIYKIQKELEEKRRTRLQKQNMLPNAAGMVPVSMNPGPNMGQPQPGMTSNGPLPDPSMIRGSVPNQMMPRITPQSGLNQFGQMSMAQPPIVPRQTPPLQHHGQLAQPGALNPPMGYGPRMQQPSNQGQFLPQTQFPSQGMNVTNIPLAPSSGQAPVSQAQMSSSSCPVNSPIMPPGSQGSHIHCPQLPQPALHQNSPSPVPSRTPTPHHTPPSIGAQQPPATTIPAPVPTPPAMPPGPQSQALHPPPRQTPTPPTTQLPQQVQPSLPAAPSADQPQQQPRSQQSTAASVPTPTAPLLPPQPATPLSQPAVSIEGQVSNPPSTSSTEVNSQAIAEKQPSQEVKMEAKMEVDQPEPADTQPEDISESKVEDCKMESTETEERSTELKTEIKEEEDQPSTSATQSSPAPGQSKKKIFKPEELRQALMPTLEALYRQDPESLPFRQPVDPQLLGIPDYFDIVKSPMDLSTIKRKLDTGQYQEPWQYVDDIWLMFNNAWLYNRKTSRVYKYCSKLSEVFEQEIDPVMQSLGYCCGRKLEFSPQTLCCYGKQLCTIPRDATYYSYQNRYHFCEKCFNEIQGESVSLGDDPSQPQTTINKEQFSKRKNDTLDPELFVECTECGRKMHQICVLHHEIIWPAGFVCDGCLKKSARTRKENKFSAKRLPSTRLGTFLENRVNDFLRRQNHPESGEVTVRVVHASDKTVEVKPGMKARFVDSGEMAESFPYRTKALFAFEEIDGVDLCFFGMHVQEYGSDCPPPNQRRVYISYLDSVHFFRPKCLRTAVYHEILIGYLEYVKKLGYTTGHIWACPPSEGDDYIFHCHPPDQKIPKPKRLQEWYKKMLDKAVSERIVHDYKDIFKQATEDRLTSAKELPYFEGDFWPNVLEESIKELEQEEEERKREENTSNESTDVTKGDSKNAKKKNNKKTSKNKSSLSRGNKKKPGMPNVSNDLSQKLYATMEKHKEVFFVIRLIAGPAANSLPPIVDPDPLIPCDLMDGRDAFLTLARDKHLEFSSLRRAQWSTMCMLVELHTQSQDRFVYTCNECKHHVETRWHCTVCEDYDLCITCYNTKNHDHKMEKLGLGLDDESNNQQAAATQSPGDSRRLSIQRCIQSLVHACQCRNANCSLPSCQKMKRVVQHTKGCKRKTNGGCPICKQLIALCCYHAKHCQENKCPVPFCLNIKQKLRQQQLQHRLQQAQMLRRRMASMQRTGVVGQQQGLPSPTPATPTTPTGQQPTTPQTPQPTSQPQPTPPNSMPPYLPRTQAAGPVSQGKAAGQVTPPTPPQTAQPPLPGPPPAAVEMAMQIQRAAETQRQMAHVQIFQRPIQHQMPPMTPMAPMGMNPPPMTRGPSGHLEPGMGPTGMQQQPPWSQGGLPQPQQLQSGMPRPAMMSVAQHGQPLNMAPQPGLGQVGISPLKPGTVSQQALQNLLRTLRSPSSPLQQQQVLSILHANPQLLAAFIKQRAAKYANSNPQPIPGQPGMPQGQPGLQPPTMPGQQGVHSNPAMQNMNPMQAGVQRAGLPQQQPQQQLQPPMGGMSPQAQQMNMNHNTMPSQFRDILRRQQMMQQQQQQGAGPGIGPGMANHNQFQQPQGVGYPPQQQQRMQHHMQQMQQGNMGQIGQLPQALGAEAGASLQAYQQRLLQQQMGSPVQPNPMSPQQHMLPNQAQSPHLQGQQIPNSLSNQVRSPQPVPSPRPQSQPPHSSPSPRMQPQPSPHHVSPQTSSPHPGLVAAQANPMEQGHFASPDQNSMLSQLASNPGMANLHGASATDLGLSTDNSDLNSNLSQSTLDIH
# procedure-summary: P300 degradation, HiBit technology in A549 P300 HiBit cells (2 h)
# Format: cell-based
# setup-conditions: A549, A549 P300 HiBit cells, 2 hrs post treatment

# compound, Dmax
records = [
    ("Cc1cc(-c2cc3cccc(-c4cnc5c(c4)n(C)c(=O)n5C)c3cn2)cnc1C(=O)NCC#Cc1cc2c(C3CCC(=O)NC3=O)cccc2o1 (centres unmarked)", "> 80%"),
    ("Cc1cc2c(N3CCCc4nc(-c5ccc(C(=O)NCC#Cc6oc7cccc(C8CCC(=O)NC8=O)c7c6F)nc5)ncc43)cc(C3CCOCC3)cc2n(C)c1=O (centres unmarked)", "> 80%"),
    ("Cc1cc(-c2ncc3c(n2)CCCN3c2ccc3c(c2)n(C)c(=O)n3C)cnc1C(=O)NCC#Cc1ccc2occ(C3CCC(=O)NC3=O)c2c1 (centres unmarked)", "> 80%"),
    ("Cc1cc(-c2cccc3cc(-c4ccc(C(=O)NCC#Cc5cc6c(C7CCC(=O)NC7=O)cccc6o5)nc4)ncc23)cc2c1n(C)c(=O)n2C (centres unmarked)", "> 80%"),
    ("CC(C)c1cc(N2CCOc3cc(-c4ccc(C(=O)NCC#Cc5ccc6occ(C7CCC(=O)NC7=O)c6c5)nc4)ccc32)cc2c1n(C)c(=O)n2C (centres unmarked)", "60 to 79%"),
    ("Cn1c(=O)n(C)c2c(N3CC4CC(C3)O4)nc(-c3cccc4cc(-c5ccc(C(=O)NCC#Cc6cc7c(C8CCC(=O)NC8=O)cccc7o6)nc5)ncc34)cc21 (centres unmarked)", "> 80%"),
    ("Cc1cc(-c2ncc(N(C)c3cc4c(c(C(C)C)n3)n(C)c(=O)n4C)cn2)cnc1C(=O)NCC#Cc1ccc2occ(C3CCC(=O)NC3=O)c2c1 (centres unmarked)", "< 20%"),
    ("CC(C)c1cc(N2CCOc3cc(-c4ccc(C(=O)NCC#Cc5ccc6occ(C7CCC(=O)NC7=O)c6c5)nc4)c(Cl)cc32)cc2c1n(C)c(=O)n2C (centres unmarked)", "> 80%"),
    ("Cc1cc(-c2cc3cccc(-c4ccc5c(c4)n(C)c(=O)n5C)c3cn2)cnc1C(=O)NCC#Cc1ccc2occ(C3CCC(=O)NC3=O)c2c1 (centres unmarked)", "> 80%"),
    ("Cc1cc(-c2cc(N(C)C)c(N(C)c3cc(C4CCOCC4)c4c(c3)n(C)c(=O)n4C)cn2)cnc1C(=O)NCC#Cc1cc2c(C3CCC(=O)NC3=O)cccc2o1 (centres unmarked)", "< 20%"),
    ("Cc1cc(-c2cnc(N(C)c3cc(C4CCOCC4)c4c(c3)n(C)c(=O)n4C)cn2)cnc1C(=O)NCC#Cc1cc2c(C3CCC(=O)NC3=O)nccc2o1 (centres unmarked)", "> 80%"),
    ("Cc1nc2c(N3CCCc4nc(-c5ccc(C(=O)NCC#Cc6ccc7occ(C8CCC(=O)NC8=O)c7c6)nc5)ncc43)cc(C3CCOCC3)cc2n(C)c1=O (centres unmarked)", "< 20%"),
    ("COc1nc(-c2cnc(C(=O)NCC#Cc3cc4c(C5CCC(=O)NC5=O)cccc4o3)c(C)c2)ncc1Nc1cc(C2CCOCC2)cc2c1cc(C)c(=O)n2C (centres unmarked)", "> 80%"),
    ("Cc1cc2c(N3CCCc4nc(-c5ccc(C(=O)NCC#Cc6cc7c([C@H]8CCC(=O)NC8=O)cccc7o6)nc5)ncc43)cc(C3CCOCC3)nc2n(C)c1=O", "> 80%"),
    ("CC(C)c1cc(-c2cccc3cc(-c4ccc(C(=O)NCC#Cc5ccc6ccnc(C7CCC(=O)NC7=O)c6c5)nc4)ncc23)cc2c1n(C)c(=O)n2C (centres unmarked)", "60 to 79%"),
    ("CN1CCN(c2ccc3c(c2)n(C)c(=O)n3C)c2cc(C(F)(F)F)c(-c3ccc(C(=O)NCC#Cc4cc5c(C6CCC(=O)NC6=O)cccc5o4)nc3)cc21 (centres unmarked)", "> 80%"),
    ("Cc1cc(-c2ncc3c(n2)OCCN3c2ccc3c(c2)n(C)c(=O)n3C)cnc1C(=O)NCC#Cc1cc2c([C@H]3CCC(=O)NC3=O)cccc2o1", "> 80%"),
    ("Cc1cc2c(N3CCCc4cc(-c5ccc(C(=O)NCC#Cc6cc7c(C8CCC(=O)NC8=O)cccc7o6)nc5)ncc43)cc(C3CCOCC3)nc2n(C)c1=O (centres unmarked)", "> 80%"),
    ("Cc1cc(-c2ncc(N(C)c3cc(C4CCOCC4)c4c(c3)n(C)c(=O)n4C)cn2)cnc1C(=O)NCC#Cc1ccc2occ(C34CC(C3)C(=O)NC4=O)c2c1", "> 80%"),
    ("Cc1nc(-c2cnc(N(C)c3cc(C4CCOCC4)c4c(c3)n(C)c(=O)n4C)cn2)cnc1C(=O)NCC#Cc1cc2c(C3CCC(=O)NC3=O)nccc2o1 (centres unmarked)", "> 80%"),
    ("CC(C)c1cc(N(C)c2cnc(-c3ccc(C(=O)NCC#Cc4ccc5occ(C6CCC(=O)NC6=O)c5c4)nc3)cn2)cc2c1n(C)c(=O)n2C (centres unmarked)", "> 80%"),
    ("Cc1cc2c(N3CCCc4nc(-c5ccc(C(=O)NCC#Cc6cc7c(C8CCC(=O)NC8=O)nccc7o6)nc5)ncc43)cccc2n(C)c1=O (centres unmarked)", "> 80%"),
    ("CCc1cc(-c2cccc3cc(-c4ccc(C(=O)NCC#Cc5cc6c(cnn6C6CCC(=O)NC6=O)cc5C)nc4)ncc23)c2cc(C)c(=O)n(C)c2c1 (centres unmarked)", "20 to 39%"),
]

The measured values listed here are drawn from patent US20250114345A1.
